Test system: C2A
Test: qHTS profiling for inhibitors of Plasmodium falciparum proliferation (AID 504749); further: nearly all actives have a fitted effect of over 60% in size; further: potency means the concentration at half of the fitted maximal effect
Conditions: P. falciparum in erythrocytes, SYBR Green DNA, 72 h; series mostly up to 28.7 µM
Inconclusive results are not listed. The source made the active and inactive calls. The call rests on the fitted dose curve; in most records, active means well fitted inhibition curve with a large enough effect; inconclusive means small, poorly fitted or top-dose-only effect; inactive means flat fitted curve, though single readings scatter.
Property label: Potency

>>> df
                                   compound  experimental_value
0  CCC(C(=O)NC(N)=O)c1ccccc1 (centres undefined)            inactive
1        Nc1ncnc2c1ncn2[C@H]1CC[C@@H](CO)O1            inactive
2  CN1CCC(OC(=O)C(Oc2ccc(Cl)cc2)Oc2ccc(Cl)cc2)CC1            inactive
3  CC1=C(/C=C/C(C)=C/C=C/C(C)=C/C(=O)Oc2c(C)c(C)c3c(c2C)CC[C@@](C)(CCC[C@H](C)CCC[C@H](C)CCCC(C)C)O3)C(C)(C)CCC1            inactive
4        CCC(O)c1ccccc1 (centres undefined)            inactive

Record Potency for all entries; do not skip any.
1. CCCCCCCCCCCC(=O)OCC(O)CO (centres undefined)
2. CC12CCC(C1)C(C)(C)C2=O (centres undefined)
3. O=C1NCCN1c1ncc([N+](=O)[O-])s1
4. CC/C=C\C/C=C\C/C=C\C/C=C\C/C=C\CCCC(=O)O
5. CCOC(C)OCC
6. O=C(O)C1=C(CSc2nnnn2CS(=O)(=O)O)CS[C@@H]2[C@H](NC(=O)[C@H](O)c3ccccc3)C(=O)N12
7. CN1C(=O)OC(C)(C)C1=O
8. CC(C)c1ncc([N+](=O)[O-])n1C

["inactive", "inactive", "inactive", "inactive", "inactive", "inactive", "inactive", "inactive"]

Record Potency for all entries; do not skip any.
1. COc1ccc(-c2noc(CC(=O)O)c2-c2ccc(OC)cc2)cc1
2. C[C@H](N)C(=O)N[C@@H](C)P(=O)(O)O
3. O=P(O)(O)OP(=O)(O)O
4. C=C1C(CCl)(CCl)C2(Cl)C(Cl)C(Cl)C1(Cl)C2(Cl)Cl (centres undefined)
5. Nc1nccs1

inactive
inactive
inactive
3.16 µM (active)
inactive

Record Potency for all entries; do not skip any.
1. O=S(=O)(O)CC(S)CS (centres undefined)
2. CCCCC/C=C\C/C=C\C/C=C\CCCCC(=O)O
3. CCN(CC)CCOc1ccccc1OC
4. CN(C)C=Nc1c(I)cc(I)c(CCC(=O)O)c1I

["inactive", "inactive", "inactive", "inactive"]

Record Potency for all entries; do not skip any.
1. FCOC(C(F)(F)F)C(F)(F)F
2. CCCCCCCCCCCCCCCCCCCCCC(=O)Nc1ccn([C@@H]2O[C@H](CO)[C@@H](O)[C@@H]2O)c(=O)n1

1. inactive
2. inactive

Provenance of the data: PubChem BioAssay (NCATS)
